Target Entity: TAK1-TAB1 fusion protein (Homo sapiens, UniProt O43318)
Sequence (O43318 with tags, fused parts or gaps limits assumed): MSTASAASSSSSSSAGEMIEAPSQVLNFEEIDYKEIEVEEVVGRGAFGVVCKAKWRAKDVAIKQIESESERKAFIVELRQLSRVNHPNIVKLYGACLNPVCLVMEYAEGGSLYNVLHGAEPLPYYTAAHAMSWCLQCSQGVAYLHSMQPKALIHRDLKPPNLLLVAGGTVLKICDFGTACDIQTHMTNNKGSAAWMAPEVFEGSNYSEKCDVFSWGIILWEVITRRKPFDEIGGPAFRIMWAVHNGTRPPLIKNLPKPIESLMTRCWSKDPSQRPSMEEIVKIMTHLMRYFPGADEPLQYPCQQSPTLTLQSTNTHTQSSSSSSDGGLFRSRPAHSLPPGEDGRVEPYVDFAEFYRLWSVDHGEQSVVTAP
Test Method Notes: In vitro TAK1 kinase assay (33P-ATP, casein substrate)
Protocol Conditions: semi-quantitative score, at least two independent experiments
Recorded Metric: IC50

O=c1cc(-c2ccc(Nc3ccc(N4CCS(=O)(=O)CC4)cc3)c3nccn23)cc[nH]1: > 3 µM
CC(=O)Nc1ccc(-c2ccc(Nc3ccc(N4CCN(C(C)C)CC4)cc3)c3nccn23)cc1: > 3 µM
O=C(NCCN1CCCC1)c1ccc(Nc2ccc(-c3ccc4c(c3)CNC4=O)n3ccnc23)cc1: < 0.1 µM

QUERY: Note IC50 for the molecule shown: O=c1cc(-c2ccc(Nc3ccc(N4CCCC4)c(Cl)c3)c3nccn23)cc[nH]1
RESULT: > 3 µM
